- system: furin, P09958;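 note: purified furin at 1:10 enzyme:substrate in 50 mM HEPES pH 7.5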
- Sequence (P09958 whole entry): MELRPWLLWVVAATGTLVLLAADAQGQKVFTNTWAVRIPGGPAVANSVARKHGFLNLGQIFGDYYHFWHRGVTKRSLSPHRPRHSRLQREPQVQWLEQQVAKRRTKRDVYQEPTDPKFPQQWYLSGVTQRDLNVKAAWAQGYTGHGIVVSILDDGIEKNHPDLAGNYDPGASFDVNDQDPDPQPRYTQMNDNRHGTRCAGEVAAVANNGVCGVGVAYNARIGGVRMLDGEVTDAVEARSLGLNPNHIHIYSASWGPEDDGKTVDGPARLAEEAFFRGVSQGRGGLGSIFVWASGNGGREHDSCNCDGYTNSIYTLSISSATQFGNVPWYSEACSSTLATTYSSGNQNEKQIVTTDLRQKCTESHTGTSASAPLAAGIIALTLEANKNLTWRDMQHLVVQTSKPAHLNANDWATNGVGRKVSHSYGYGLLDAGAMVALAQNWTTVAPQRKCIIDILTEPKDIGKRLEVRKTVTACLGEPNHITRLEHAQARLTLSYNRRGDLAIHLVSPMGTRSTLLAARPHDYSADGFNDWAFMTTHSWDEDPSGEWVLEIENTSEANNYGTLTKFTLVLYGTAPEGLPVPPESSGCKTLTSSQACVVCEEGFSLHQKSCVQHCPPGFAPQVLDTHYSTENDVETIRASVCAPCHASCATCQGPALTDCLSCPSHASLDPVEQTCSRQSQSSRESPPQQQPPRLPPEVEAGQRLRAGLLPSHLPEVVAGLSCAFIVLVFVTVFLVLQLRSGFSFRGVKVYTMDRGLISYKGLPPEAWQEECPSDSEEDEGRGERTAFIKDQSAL
- method.summary: furin cleavage Z-score vs untreated control; higher = more cleavage, active = 3.5 or more, inactive = 1 or less, 8 variable residues between constant flanks
- conditions: 30 min
Some of the results follow. The true hit rate is not given.
assay.readout: furin cleavage Z-score

[Q] Find the recorded furin cleavage Z-score belonging to CASLDPTFTIAGNASASA [HC893] and report it.
[A] -1.02 (inactive)

[Q] Can you look up the measured furin cleavage Z-score of CASWPCSAHLAGNASASA [HC2488] for me?
[A] 1.37

[Q] Which furin cleavage Z-score value is on record for CAITLTHPVTAGNASASA [HC978] ?
[A] -0.511 (inactive)

Now for the sequence whose furin cleavage Z-score we want.
[Q] What furin cleavage Z-score value was documented for this sequence, CAFLADGGCSAGNASASA [HC810] ?
[A] -0.4 (inactive)
